GI50 overview
- Tested on: SF-268
- ASSAY METHOD TEXT: NCI tumour cell line growth inhibition, 48 h
The source made the active and inactive calls. No stated cut-off is given here; in the data, active = GI50 up to about 1.1 µM and inactive = higher.

{"COMPOUND": "COC(=O)c1ccc2c(O)c(O)ccc2c1", "GI50": "19.4 µM (inactive)"}
{"COMPOUND": "O=C1CNCCCN2CCN(CCCNCC(=O)Nc3ccc(cc3)S(=O)(=O)c3ccc(cc3)NC(=O)CNCCCN3CCN(CCCNCC(=O)Nc4ccc(cc4)S(=O)(=O)c4ccc(cc4)N1)CC3)CC2", "GI50": "22.9 µM (inactive)"}
{"COMPOUND": "COc1cccc(-c2nc(N)c(C#N)c3c2CCS(=O)(=O)c2ccc(C)cc2-3)c1", "GI50": "31.6 µM (inactive)"}
{"COMPOUND": "N=C(N)n1nc2c(c1O)CCCC2", "GI50": "> 100 µM (inactive)"}
{"COMPOUND": "Cn1c2ccccc2n2c3ccccc3c(=S)c(C#N)c12", "GI50": "> 100 µM (inactive)"}
{"COMPOUND": "CN1Nc2ccccc2CC1=O", "GI50": "> 100 µM (inactive)"}

**Q:** Could you share which GI50 value was measured for O=C1/C(=C/c2cccc(Br)c2)Cc2ccccc21 ?
**A:** 53.6 µM (inactive)

**Q:** Further, for CN1CC2CC(C1)c1cccc(=O)n1C2 (stereo not given) ?
**A:** > 100 µM (inactive)

**Q:** Further, for CC(C)(Oc1ccc(C(=O)c2ccc(Cl)cc2)cc1Cl)C(=O)Nc1c(Cl)cccc1Cl ?
**A:** > 100 µM (inactive)

**Q:** Further, for COc1cccc(C(=O)C2C(=O)N(C)CCc3ccccc32)c1OC (stereo not given) ?
**A:** > 10 µM (inactive)

* * *

- Test system: MDA-MB-231
- ASSAY METHOD TEXT: NCI tumour cell line growth inhibition, 48 h
Active and inactive are the calls of the source. Rule as the data show it: active = GI50 up to about 1.1 µM and inactive = higher.
MEASURED PARAMETER: GI50

**Q:** Under MDA-MB-231: GI50 value of C=C(Cl)C(Cl)(CCl)CCC(Br)C(C)(C)Br (stereo not given) ?
**A:** > 10 µM (inactive)

**Q:** Further, for COC(=O)NCCc1n[nH]c2c1C(=O)C=C(Nc1ccccc1OC)C2=O ?
**A:** 27 µM (inactive)

**Q:** Further, for N#Cc1c(N2CCOCC2)[nH]c(=O)c(C(c2c(Cl)cccc2Cl)c2c(O)c(C#N)c(N3CCOCC3)[nH]c2=O)c1O ?
**A:** 16.6 µM (inactive)

**Q:** Further, for CC(C)=CCNc1ncnc2c1c(C#N)cn2C1OC(CO)C(O)C1O (stereo not given) ?
**A:** 33.7 µM (inactive)

**Q:** Further, for CNc1ccccc1S(=O)(=O)c1ccccc1[N+](=O)[O-] ?
**A:** > 100 µM (inactive)

**Q:** Further, for O=C1C/C(=C\O)C(=O)c2ccccc2N1 ?
**A:** > 100 µM (inactive)

* * *

- Tested on: HL-60
- ASSAY METHOD TEXT: NCI tumour cell line growth inhibition, 48 h
The source made the active and inactive calls. Rule as the data show it: active = GI50 up to about 1.1 µM and inactive = higher.
Your answer must be one of the following: active, inactive

# example entries with known answers
{"MOLECULE": "OC12c3ccccc3C3CCC4(OCCO4)C3C1c1ccccc12 (stereo unspecified)", "CLASS NAME": "inactive"}
{"MOLECULE": "CCCCNC(=O)c1cc2c(cc1Cl)Sc1nccn1S2(=O)=O", "CLASS NAME": "inactive"}

**Q:** Hi team, can someone confirm the assay call for CC1(C)N=C(N)N=C(N)N1c1cccc(C(=O)Nc2ccc(S(=O)(=O)F)cc2)c1 ?
**A:** inactive

**Q:** Further, for O=C(COc1ccc(Br)cc1Br)N1N=C(c2ccc([N+](=O)[O-])o2)CC1(O)c1ccccc1 (stereo unspecified) ?
**A:** inactive

**Q:** Further, for C/C(=N\NC(=S)N1CCCCCC1)c1cccc2cccnc12 ?
**A:** inactive

**Q:** Further, for CCOC(=O)c1nnc2c(C(=O)OCC)c3ccccc3n2c1N ?
**A:** inactive

**Q:** Further, for Cc1ccc(NC(=O)C(=O)CC(=O)c2sc(Nc3c(C)cccc3C)nc2C)cc1C ?
**A:** inactive

* * *

- Test system: 786-0
- ASSAY METHOD TEXT: NCI tumour cell line growth inhibition, 48 h
Activity calls are given as the source filed them. Cut-off read from the data, not from the text of the source: active = GI50 up to about 1.1 µM and inactive = higher.
Your answer must be one of the following: 1 (active), -1 (inactive)

# example entries with known answers
{"COMPOUND": "CCOC(=O)C(=Cc1ccc(Oc2ccccc2)cc1)C(=O)OCC", "TEST TARGET": "786-0", "CLASS NAME": -1}
{"COMPOUND": "CCN(C(=O)N[C@@H](CC(C)C)C(=O)NCC(=O)OC)c1ccccc1", "TEST TARGET": "786-0", "CLASS NAME": -1}
{"COMPOUND": "COC1=C(N2CC2)C(=O)c2nc3n(c2C1=O)CCC3", "TEST TARGET": "786-0", "CLASS NAME": 1}

**Q:** Hi team, can someone confirm the assay call for Cc1nc(-n2nc(-c3ccccc3)cc2-c2ccccc2)sc1C(=O)/C=C/c1cccc([N+](=O)[O-])c1 ?
**A:** -1

**Q:** Further, for C[C@]12CC[C@H](OC3CCCCO3)CC1=CC[C@@H]1C2CC[C@]2(C)/C(=N/O)CCC12 (stereo not given in full) ?
**A:** -1

* * *

- Test system: COLO 205
- ASSAY METHOD TEXT: NCI tumour cell line growth inhibition, 48 h
Activity calls are given as the source filed them. Rule as the data show it: active = GI50 up to about 1.1 µM and inactive = higher.
GI50 overview

Example entries begin here.
{"MOLECULE": "Cc1cc2c(c(C(N)=O)c1C)-c1cccc(F)c1C2=O", "TEST RESULT": "> 100 µM (inactive)"}
{"MOLECULE": "COc1cc(/C=C/C(=O)OCCc2ccccc2)ccc1O", "TEST RESULT": "19.4 µM (inactive)"}

**Q:** Could you share which GI50 value was measured for C=C(C)C#CC(O)(C(=O)OC1CCN(C)CC1)C(C)C (centres undefined) ?
**A:** > 100 µM (inactive)

**Q:** Further, for Cc1onc(-c2c(F)cccc2Cl)c1C(=O)N[C@@H]1C(=O)N2[C@@H]1SC(C)(C)[C@@H]2C(=O)O ?
**A:** > 100 µM (inactive)

**Q:** Further, for Cc1ccc(-c2cc(=O)c3cc(C)c(C)c(C(=O)O)c3o2)cc1C ?
**A:** > 100 µM (inactive)

**Q:** Further, for CCCC(=O)OCC1OC(n2cc(F)c(=O)[nH]c2=O)C(F)C1O (centres undefined) ?
**A:** 24.5 µM (inactive)

**Q:** Further, for COc1cc2c(c(OC)c1OC)C(=O)[C@@H]1[C@H]2N1C(N)=O ?
**A:** 91.2 µM (inactive)

**Q:** Further, for O=c1[nH]c2c(O)cccc2c2cc3c(c(O)c12)OCO3 [NARCIPRIMINE] ?
**A:** 13.1 µM (inactive)

* * *

- Tested on: OVCAR-8
- ASSAY METHOD TEXT: NCI tumour cell line growth inhibition, 48 h
Calls of active or inactive are those of the source. No stated cut-off is given here; in the data, active = GI50 up to about 1.1 µM and inactive = higher.
MEASURED PARAMETER: GI50

{"COMPOUND": "COC(=O)c1ccc2c(O)c(O)ccc2c1", "TEST TARGET": "OVCAR-8", "GI50": "16.1 µM (inactive)"}
{"COMPOUND": "COC(=O)[C@]1(C)C(OC)=CC(=O)C2C1[C@H]1CCC[C@@H]21 (stereo partly specified)", "TEST TARGET": "OVCAR-8", "GI50": "> 100 µM (inactive)"}
{"COMPOUND": "CNC(=O)CCCN(C)C(=O)CCCCC(=O)N(C)C", "TEST TARGET": "OVCAR-8", "GI50": "> 60.8 µM (inactive)"}
{"COMPOUND": "COC1=CC(=O)c2c(ccc3ncnc(N)c23)C1=O", "TEST TARGET": "OVCAR-8", "GI50": "2.11 µM (inactive)"}
{"COMPOUND": "CC1=NN(c2nc(N)nc(/C(C#N)=C/c3cccn3-c3cc(Cl)cc(Cl)c3)n2)C(C)(C)C1", "TEST TARGET": "OVCAR-8", "GI50": "12 µM (inactive)"}

Note: attention shifts to another entry.
**Q:** Could you share which GI50 value was measured for COC(=O)CCC(=O)Nc1cc(Cl)ccc1Cl ?
**A:** > 100 µM (inactive)

* * *

- Test system: OVCAR-3
- ASSAY METHOD TEXT: NCI tumour cell line growth inhibition, 48 h
Active and inactive are the calls of the source. No stated cut-off is given here; in the data, active = GI50 up to about 1.1 µM and inactive = higher.
Your answer must be one of the following: active, inactive

# example entries with known answers
{"COMPOUND": "O=C(N/C(=C\\c1ccccc1Cl)c1nc2ccccc2[nH]1)c1ccccc1", "CLASS NAME": "inactive"}
{"COMPOUND": "CC1(C)N=C(N)N=C(N)N1c1cccc(C(=O)Nc2ccc(S(=O)(=O)F)cc2)c1", "CLASS NAME": "inactive"}
{"COMPOUND": "CCc1c(CN)c(CC)c(CNC2=NCCN2)c(CC)c1CNC1=NCCN1", "CLASS NAME": "inactive"}
{"COMPOUND": "CN(C(=O)CC(=O)CP(=O)(c1ccccc1)c1ccccc1)c1ccccc1", "CLASS NAME": "inactive"}

**Q:** Hi team, can someone confirm the assay call for OC12c3ccccc3C1(N1CCOCC1)CCCCC21OCCCO1 (stereo unspecified) ?
**A:** inactive

**Q:** Further, for O=C1/C(=C/c2cccc(Br)c2)Cc2ccccc21 ?
**A:** inactive

**Q:** Further, for Cn1cc(NC(=O)Nc2cc(C(=O)Nc3cc(C(=O)Nc4ccc(S(=O)(=O)O)c5cc(S(=O)(=O)O)ccc45)n(C)c3)n(C)c2)cc1C(=O)Nc1cc(C(=O)Nc2ccc(S(=O)(=O)O)c3cc(S(=O)(=O)O)ccc23)n(C)c1 ?
**A:** inactive

**Q:** Further, for CCCC(=O)OCC1OC(n2cc(F)c(=O)[nH]c2=O)C(F)C1O (stereo unspecified) ?
**A:** inactive

**Q:** Further, for C/N=c1\sc2nc(C#N)c(C#N)nc2n1C ?
**A:** inactive
